Test system: SR leukemia
assay.name: NCI-60 one-dose screen, 48 h
test.parameters: 10 µM unless noted
The panel holds about 83,000 compounds, 20% with a hit somewhere; the sample as a whole holds those more often. Activity calls are given as the source filed them. Rule for the calls: active = growth percent below 10; inactive = the rest.
Possible outcomes: TRUE = active, FALSE = inactive

- compound.structure: "O=C1C2=C(CCN(Cc3ccccc3)C2)N2CCN=C2N1Cc1ccc(C(F)(F)F)cc1"
  assay.system: "SR leukemia"
  assigned.class: "FALSE"
- compound.structure: "Cn1ccnc1C(=O)/C=C/c1ccc(C(=O)Nc2ccc(S(F)(F)(F)(F)F)cc2)cc1"
  assay.system: "SR leukemia"
  assigned.class: "TRUE"
- compound.structure: "CNC1(C#N)CCN(Cc2ccccc2)CC1"
  assay.system: "SR leukemia"
  assigned.class: "FALSE"
- compound.structure: "CCCCN(CCCC)CCCn1c(=O)c2sc3ncccc3c2n2nnc(-c3ccccc3)c12"
  assay.system: "SR leukemia"
  assigned.class: "FALSE"
- compound.structure: "COc1ccccc1NC(=O)Nc1ccc(-c2nc3ccccc3o2)cc1"
  assay.system: "SR leukemia"
  assigned.class: "FALSE"

====

Parameter growth: see the listing below.
Test system: NCI-H226 lung
assay.name: NCI-60 one-dose screen, 48 h (100 = growth as untreated, 0 = no growth, -100 = all killed)
test.parameters: 10 µM unless noted
About 83,000 compounds went through this panel and 20% of them were active in at least one assay; those are over-represented in the sample as a whole.
observation.type: growth (%)

- molecule: "CCCCOc1ccc(NC(=O)n2nc(N=NN(C)C)c3ccc(Cl)cc32)cc1"
  assay.system: "NCI-H226 lung"
  observation.type: "growth"
  value.measured: 96.3
- molecule: "O=C1CSC(c2ccccc2)N1c1ccccc1 (stereo not drawn)"
  assay.system: "NCI-H226 lung"
  observation.type: "growth"
  value.measured: 96.2
- molecule: "CCCCNC(=O)c1cc(NCc2cc(O)ccc2O)ccc1O"
  assay.system: "NCI-H226 lung"
  observation.type: "growth"
  value.measured: 106
- molecule: "C=C(C=O)[C@@H]1CC=C(C=O)CC1"
  assay.system: "NCI-H226 lung"
  observation.type: "growth"
  value.measured: 71.2
- molecule: "CCOC(=O)c1sc2ccc(NCc3nc[nH]c3C)cc2c1NC(=O)c1cc(OC)c(OC)c(OC)c1"
  assay.system: "NCI-H226 lung"
  observation.type: "growth"
  value.measured: 84.3
- molecule: "O=C(NCCOCCOCCNc1cccc2c1C(=O)N(C1CCCNC1=O)C2=O)c1cc2c(o1)C(=O)c1ccccc1C2=O (stereo not drawn)"
  assay.system: "NCI-H226 lung"
  observation.type: "growth"
  value.measured: -79.8
- molecule: "Cl.[Pt].[c-]1ccccc1-c1ccccn1.c1ccc(P(c2ccccc2)C([PH+](c2ccccc2)c2ccccc2)[PH+](c2ccccc2)c2ccccc2)cc1"
  assay.system: "NCI-H226 lung"
  observation.type: "growth"
  value.measured: 7.37
- molecule: "CCCN1CCN(c2ccc3nc(-c4ccc5nc(-c6ccc(OCC)c(OCC)c6)[nH]c5c4)[nH]c3c2)CC1"
  assay.system: "NCI-H226 lung"
  observation.type: "growth"
  value.measured: -58.2
- molecule: "CC(C)(C)OC(=O)N1Cc2cc3ccccc3nc2C1CO (stereo not drawn)"
  assay.system: "NCI-H226 lung"
  observation.type: "growth"
  value.measured: 92.1
- molecule: "Cl.Fc1c[c-]c(-c2ccccn2)c(F)c1.[Pt].c1ccc([PH+](c2ccccc2)c2ccccc2[PH+](c2ccccc2)c2ccccc2)cc1"
  assay.system: "NCI-H226 lung"
  observation.type: "growth"
  value.measured: -70
- molecule: "CC1(C)CC(=O)c2c(ccc(C(=O)C[C@H](N)CO)c2N)O1"
  assay.system: "NCI-H226 lung"
  observation.type: "growth"
  value.measured: 58.3
- molecule: "O=C1Nc2ccccc2/C1=N/N=C/c1ccc(OC2OC(CO)C(O)C(O)C2O)cc1 (stereo not drawn)"
  assay.system: "NCI-H226 lung"
  observation.type: "growth"
  value.measured: 104
- molecule: "COc1cc(C(=O)/C=C/c2c(C(F)(F)F)nc3ccccn23)cc(OC)c1OC"
  assay.system: "NCI-H226 lung"
  observation.type: "growth"
  value.measured: -25.5
- molecule: "CCCCn1c(=O)[nH]c(N)c(C(c2ccc(F)cc2)c2c(N)[nH]c(=O)n(CCCC)c2=O)c1=O"
  assay.system: "NCI-H226 lung"
  observation.type: "growth"
  value.measured: 77.7
- molecule: "C=C(C)[C@@H]1CC[C@]2(C(=O)NCC(=O)O)CC[C@]3(C)[C@H](CC[C@@H]4[C@@]5(C)Cc6c([nH]c7ccccc67)C(C)(C)[C@@H]5CC[C@]43C)[C@@H]12"
  assay.system: "NCI-H226 lung"
  observation.type: "growth"
  value.measured: 87.8
- molecule: "O=[N+]([O-])c1ccc(-c2cc3c(Nc4ccc(OCc5cccc(Cl)c5)c(Cl)c4)ncnc3s2)cc1"
  assay.system: "NCI-H226 lung"
  observation.type: "growth"
  value.measured: 92.2
- molecule: "CC1(C)N=C(N)N=C(N)N1c1ccc(Cl)c(Cl)c1"
  assay.system: "NCI-H226 lung"
  observation.type: "growth"
  value.measured: 52.1
- molecule: "CN(C)CCCCNc1ccc(NCCCCN(C)C)c2c1C(=O)c1c(O)ccc(O)c1C2=O"
  assay.system: "NCI-H226 lung"
  observation.type: "growth"
  value.measured: 102

====

Test system: CCRF-CEM leukemia
assay.name: NCI-60 one-dose screen, 48 h
test.parameters: 10 µM unless noted
This is part of a sample that, as a whole, favours compounds with a hit. Of some 83,000 tested, about 20% had one in any assay. Calls of active or inactive are those of the source. The calls were made as follows: active = growth percent below 10; inactive = the rest.
Possible outcomes: label 1 (active), label 0 (inactive)

- molecule: "O=[N+]([O-])c1ccc(-c2cc3c(Nc4ccc(Sc5nc6ccccc6s5)c(Cl)c4)ncnc3s2)cc1"
  assigned.class: "label 0"
- molecule: "Cc1cc(Cl)nc(N(CCCNc2ccnc3cc(Cl)ccc23)Cc2ccccn2)n1"
  assigned.class: "label 0"
- molecule: "O=C1NN(C(=O)c2ccc(O)cc2)C(c2ccccc2)=N/C1=C\\c1cn(-c2ccccc2)nc1-c1ccccc1"
  assigned.class: "label 0"
- molecule: "OC(c1cccc(OCc2ccccc2)c1)c1nnc(-c2ccccc2)o1 (centres undefined)"
  assigned.class: "label 0"
- molecule: "CCCCCCNC(=O)c1cc(NCc2cc(O)ccc2O)ccc1O"
  assigned.class: "label 1"
- molecule: "C=C1C(=O)O[C@H]2[C@H]1CC/C(COC(=O)/C=C\\C(=O)NCc1ccc(Cn3c(=O)sn(CCCI)c3=O)cc1)=C\\CC[C@@]1(C)O[C@@H]21"
  assigned.class: "label 1"
- molecule: "C[C@@H]1CC[C@@H]2[C@@H]1[C@H](OC(=O)/C=C/c1ccccc1)[C@]1(C3CCCCC3)C[C@@H](NC(=O)CO)[C@@]2(C)O1"
  assigned.class: "label 0"
- molecule: "CSc1ccc(Cl)c(C(=O)Nc2sccc2C(N)=O)c1"
  assigned.class: "label 0"
- molecule: "CC(C)n1nc(C#Cc2cccc(O)c2)c2c(N)ncnc21"
  assigned.class: "label 1"

====

Test system: SF-268 CNS
assay.name: NCI-60 one-dose screen, 48 h (100 = growth as untreated, 0 = no growth, -100 = all killed)
test.parameters: 10 µM unless noted
About 83,000 compounds went through this panel and 20% of them were active in at least one assay; those are over-represented in the sample as a whole. The source made the active and inactive calls. The calls were made as follows: active = growth percent below 10; inactive = the rest.
Overview of reported growth across a group of molecules:
observation.type: growth

- compound.structure: "Cc1c2c(cn1Cc1ccccc1)CCc1cn[nH]c1-2"
  value.measured: "89.6% (inactive)"
- compound.structure: "CNC1(C#N)CCN(Cc2ccccc2)CC1"
  value.measured: "100% (inactive)"
- compound.structure: "Cc1nn(Cc2ccccc2)cc1C(=O)Nc1sc2c(c1C(N)=O)CCC(=O)C2"
  value.measured: "20.5% (inactive)"
- compound.structure: "N#C/C(=C\\c1ccc2c(c1)OCO2)n1nnc2ccccc21"
  value.measured: "22.9% (inactive)"
- compound.structure: "Cc1ccc(-n2nnc(C3=NCCc4c3[nH]c3ccc(Cl)cc43)c2C)cc1"
  value.measured: "80.6% (inactive)"
- compound.structure: "CCNCCNc1cc(-c2ccc(F)cc2)c(C#N)c2nc3ccccc3n12"
  value.measured: "53.8% (inactive)"

====

Collected growth values appear next to each entry.
Tested on: SN12C renal
assay.name: NCI-60 one-dose screen, 48 h (100 = growth as untreated, 0 = no growth, -100 = all killed)
test.parameters: 10 µM unless noted
The panel holds about 83,000 compounds, 20% with a hit somewhere; the sample as a whole holds those more often.
observation.type: growth (%)

- compound: "Cc1nc(Nc2ccc(N)cc2)c2ccccc2n1"
  assay.system: "SN12C renal"
  value.measured: 93.1
- compound: "Cc1c2c(cn1Cc1ccccc1)CCc1cn(C)nc1-2"
  assay.system: "SN12C renal"
  value.measured: 87
- compound: "CC1=CC(=O)C(C(C)C)=CC1=Nc1cc(Br)c(O)c(Br)c1"
  assay.system: "SN12C renal"
  value.measured: 36.3
- compound: "COc1ccc(O)c(-c2cc(-c3ccccc3)c(C#N)c(=O)[nH]2)c1"
  assay.system: "SN12C renal"
  value.measured: 85.1
- compound: "COc1ccc(/C(C)=C(\\c2ccc(Cl)cc2)c2ccc(OCCN(C)C)cc2)cc1F"
  assay.system: "SN12C renal"
  value.measured: 70.6
- compound: "Clc1ccc(/C=N\\N=c2\\scc(-c3ccc(Cl)cc3)n2/N=C/c2ccc(Cl)cc2)cc1"
  assay.system: "SN12C renal"
  value.measured: 102
- compound: "NC(=S)N/N=C/C(=O)O"
  assay.system: "SN12C renal"
  value.measured: 90.4
- compound: "COc1ccc(CN2C(=O)/C(=C\\c3cc(OC)c(OC)c(OC)c3)c3ccccc32)cc1"
  assay.system: "SN12C renal"
  value.measured: 12.8
- compound: "Nc1c(C(=O)c2ccc(Cl)s2)sc2nc3c(cc12)CCCC3"
  assay.system: "SN12C renal"
  value.measured: 94.4
- compound: "N#Cc1c(NC(=O)c2ccc(Br)cc2)sc2c1CCCC2"
  assay.system: "SN12C renal"
  value.measured: 45.7
- compound: "CS(=O)(=O)c1ccc(-c2[nH]c3ccc(F)cc3c2/C=N/NC(N)=S)cc1"
  assay.system: "SN12C renal"
  value.measured: 21
- compound: "O=C1CCC(N2C(=O)c3cccc(NCCCC4CCN(CCNC(=O)c5cc6c(o5)C(=O)c5ccccc5C6=O)CC4)c3C2=O)C(=O)N1 (stereo not given)"
  assay.system: "SN12C renal"
  value.measured: -95.4
- compound: "Cc1c(C(N)=O)sc2nc(C)n(/N=c3\\scc(-c4ccccc4)n3Cc3ccccc3)c(=O)c12"
  assay.system: "SN12C renal"
  value.measured: 47.7
- compound: "COc1cc2ccccc2cc1C(=O)NC(=S)Nc1ccc(-c2nc3ccccc3[nH]2)cc1"
  assay.system: "SN12C renal"
  value.measured: 83.4
- compound: "C=CCO[C@H]1CO[C@H]2[C@@H]1OC[C@@H]2Oc1ccc(Nc2ccnc(Nc3ccc(O[C@H]4CO[C@H]5[C@@H]4OC[C@@H]5OCC=C)c(Cl)c3)n2)cc1Cl"
  assay.system: "SN12C renal"
  value.measured: -95.5
- compound: "CCN(CC)CCCC(C)NCc1ccccc1 (stereo not given)"
  assay.system: "SN12C renal"
  value.measured: 102
- compound: "COc1ccc(Oc2nc(Nc3ccc(N4CCOCC4)nc3)ncc2NC(=O)c2cc(OC)cc(OC)c2)cc1"
  assay.system: "SN12C renal"
  value.measured: 93.7
- compound: "CS(=O)(=O)c1ccc(-c2nc3cc(Cl)ccc3n2CC(=O)N/N=C/c2ccc(Cl)cc2)cc1"
  assay.system: "SN12C renal"
  value.measured: 69.3
- compound: "C=CC(=O)Nc1cccc(C)c1Nc1cc(-c2cccnc2Cc2c(C)c(OC)cc(OC)c2C)ncn1"
  assay.system: "SN12C renal"
  value.measured: 30.1
- compound: "c1ccc(-c2oc3ccccc3c2-c2ccccc2)cc1"
  assay.system: "SN12C renal"
  value.measured: 92.2
